Measured mortality at 200 ppm of individual entries
tested on: Twospotted spider mites (Tetranychus urticae Koch); experiment: Mite/insect screen, SM; assay type: in vivo; conditions: Tetranychus urticae, foliar, percent mortality; rate 200 ppm, foliar spray on squash; read-out: SM RESULTS %

>  <input.smiles>
c1ccc(CCCc2ccnc3ccccc23)cc1

>  <mortality at 200 ppm>
90%

$$$$
>  <input.smiles>
Cc1ccc(CCOc2ccnc3cc(F)ccc23)cc1

>  <mortality at 200 ppm>
0%

$$$$
>  <input.smiles>
CCCCOc1ccc(CCOc2ccnc3c(F)cccc23)cc1

>  <mortality at 200 ppm>
60%

$$$$
>  <input.smiles>
Fc1cccc2c(OCCCCCCOc3ccccc3)ccnc12

>  <mortality at 200 ppm>
0%

$$$$
>  <input.smiles>
Fc1cccc2c(OCCc3ccc4ccccc4c3)ccnc12

>  <mortality at 200 ppm>
90%

$$$$

* * *

tested on: Twospotted spider mites (Tetranychus urticae Koch); test: Mite/insect screen, SM; type: in vivo; settings: Tetranychus urticae, foliar, percent mortality; rate 400 ppm, foliar spray on squash; read-out: SM RESULTS %

>  <input.smiles>
Fc1cccc2c(OCCCc3cccc(C(F)(F)F)c3)ccnc12

>  <mortality at 400 ppm / %>
0

$$$$
>  <input.smiles>
Cc1cc(OCCc2ccc(C(C)(C)C)cc2)c2cc(Cl)ccc2n1

>  <mortality at 400 ppm / %>
0

$$$$
>  <input.smiles>
OCCc1ccc(CCOc2ccnc3c(F)cccc23)cc1

>  <mortality at 400 ppm / %>
0

$$$$
>  <input.smiles>
Fc1cccc2c(OCCc3cccc(Oc4ccccc4)c3)ccnc12

>  <mortality at 400 ppm / %>
90

$$$$
>  <input.smiles>
CC(C)(C)c1ccc(CCCNc2ccnc3c(F)cccc23)cc1

>  <mortality at 400 ppm / %>
0

$$$$
>  <input.smiles>
CC(C)(C)c1ccc(CCOc2ccnc3c(Br)cccc23)cc1

>  <mortality at 400 ppm / %>
90

$$$$
>  <input.smiles>
Fc1cccc2c(CCCc3cccc(C(F)(F)F)c3)ccnc12

>  <mortality at 400 ppm / %>
80

$$$$
>  <input.smiles>
Fc1ccc(CCOc2ccnc3c(F)cccc23)cc1

>  <mortality at 400 ppm / %>
0

$$$$
>  <input.smiles>
Fc1ccc2c(OCCc3ccc(Cl)cc3)ccnc2c1

>  <mortality at 400 ppm / %>
30

$$$$
>  <input.smiles>
FC(F)(F)c1ccc2c(OCCc3ccccc3)ccnc2c1

>  <mortality at 400 ppm / %>
0

$$$$

* * *

Measured pest or weed control at 400 ppm of individual entries
test system: Septoria tritici (leaf blotch); experiment: Test 1 greenhouse foliar spray screen, leaf blotch on wheat; type: in vivo; conditions: Zymoseptoria tritici; Test 1, foliar spray on wheat; disease control rating at 400 ppm / 100 ppm; read-out: LEAF BLOT
measurement.type: pest or weed control at 400 ppm

>  <molecule>
Fc1cccc2c(OCCc3cccc(Cl)c3)ccnc12

>  <measurement.type>
pest or weed control at 400 ppm

>  <reported.measurement>
90 to 100%

$$$$
>  <molecule>
Fc1cccc2c(OCCc3cccc(C(F)(F)F)c3)ccnc12

>  <measurement.type>
pest or weed control at 400 ppm

>  <reported.measurement>
90 to 100%

$$$$
>  <molecule>
Fc1cccc2c(NCCc3ccc(Cl)cc3Cl)cc(NCCc3ccc(Cl)cc3Cl)nc12

>  <measurement.type>
pest or weed control at 400 ppm

>  <reported.measurement>
0 to 19%

$$$$
>  <molecule>
COc1ccccc1CCOc1ccnc2c(F)cccc12

>  <measurement.type>
pest or weed control at 400 ppm

>  <reported.measurement>
90 to 100%

$$$$
>  <molecule>
Clc1ccc(CCOc2ccnc3ccccc23)cc1 [Example 211, 4-[2-(4-chlorophenyl)ethoxy]quinoline]

>  <measurement.type>
pest or weed control at 400 ppm

>  <reported.measurement>
90 to 100%

$$$$
>  <molecule>
CC(Cc1ccccc1)Oc1ccnc2ccccc12 (stereo not shown)

>  <measurement.type>
pest or weed control at 400 ppm

>  <reported.measurement>
20 to 89%

$$$$
>  <molecule>
c1csc(CCOc2ccnc3ccccc23)c1 [Example 245, 4-[2-(2-thienyl)ethoxy]quinoline]

>  <measurement.type>
pest or weed control at 400 ppm

>  <reported.measurement>
0 to 19%

$$$$
>  <molecule>
Fc1cccc2c(OCCc3ccc(Cl)cc3)ccnc12

>  <measurement.type>
pest or weed control at 400 ppm

>  <reported.measurement>
90 to 100%

$$$$
>  <molecule>
Cc1ccc(CCOc2ccnc3c(OCCc4ccc(C)cc4)cccc23)cc1

>  <measurement.type>
pest or weed control at 400 ppm

>  <reported.measurement>
0 to 19%

$$$$
>  <molecule>
CC(C)(C)c1ccc(CCCc2ccnc3c(F)cccc23)cc1

>  <measurement.type>
pest or weed control at 400 ppm

>  <reported.measurement>
90 to 100%

$$$$
>  <molecule>
CC(C)(C)c1ccc(CCOc2ccnc3c(F)cccc23)cc1

>  <measurement.type>
pest or weed control at 400 ppm

>  <reported.measurement>
90 to 100%

$$$$
>  <molecule>
Fc1cccc2c(OCCc3cccs3)ccnc12

>  <measurement.type>
pest or weed control at 400 ppm

>  <reported.measurement>
90 to 100%

$$$$
>  <molecule>
Cc1ccc(CCCc2ccnc3c(F)cccc23)cc1

>  <measurement.type>
pest or weed control at 400 ppm

>  <reported.measurement>
20 to 89%

$$$$
>  <molecule>
Fc1ccc2c(OCCc3ccc(Cl)cc3)ccnc2c1

>  <measurement.type>
pest or weed control at 400 ppm

>  <reported.measurement>
20 to 89%

$$$$
>  <molecule>
c1ccc(CCOc2ccnc3ccccc23)cc1

>  <measurement.type>
pest or weed control at 400 ppm

>  <reported.measurement>
20 to 89%

$$$$
>  <molecule>
Fc1ccc(CCOc2ccnc3c(F)cccc23)cc1

>  <measurement.type>
pest or weed control at 400 ppm

>  <reported.measurement>
90 to 100%

$$$$
>  <molecule>
Cc1ccc(CCOc2ccnc3c(F)cccc23)cc1

>  <measurement.type>
pest or weed control at 400 ppm

>  <reported.measurement>
90 to 100%

$$$$
>  <molecule>
Fc1cccc2c(CCCc3ccccc3)ccnc12

>  <measurement.type>
pest or weed control at 400 ppm

>  <reported.measurement>
20 to 89%

$$$$
>  <molecule>
c1ccc(CCNc2ccnc3c(NCCc4ccccc4)cccc23)cc1

>  <measurement.type>
pest or weed control at 400 ppm

>  <reported.measurement>
0 to 19%

$$$$
